Reference for the values: paper PMC6320941

Entries and their melting point values follow.

Example entries and their recorded answers appear below.
{"molecule": "CN(C)c1cccc(-c2nn(CC(=O)Nc3cccc(F)c3)cc2-c2ccc3nccnc3c2)n1 [Compound 14c]", "melting point": "176.5 to 178.5 °C"}
{"molecule": "CN(C)c1cccc(-c2c(-c3ccc4nccnc4c3)cnn2CC(=O)Nc2ccccc2F)n1 [Compound 15b]", "melting point": "130.2 to 133 °C"}
{"molecule": "CN(C)c1cccc(-c2c(-c3ccc4nccnc4c3)cnn2CC(=O)Nc2cccc(F)c2)n1 [Compound 15c]", "melting point": "146.5 to 147.6 °C"}
{"molecule": "Cc1csc(-c2nn(CC(=O)Nc3ccccc3)cc2-c2ccc3nccnc3c2)n1 [Compound 16a]", "melting point": "190.2 to 192.5 °C"}
{"molecule": "CN(C)c1cccc(-c2nn(CC(=O)Nc3ccccc3)cc2-c2ccc3nccnc3c2)n1 [Compound 14a]", "melting point": "212.5 to 214 °C"}
{"molecule": "Cc1csc(-c2nn(CC(=O)Nc3cccc(C#N)c3)cc2-c2ccc3nccnc3c2)n1 [Compound 16d]", "melting point": "222.3 to 223 °C"}

Reported melting point for N#Cc1cccc(NC(=O)Cn2cc(-c3ccc4nccnc4c3)c(-c3ccncn3)n2)c1 [Compound 25d] : what is it?
178.3 to 180.5 °C

What do we get for Cc1csc(-c2nn(CC(=O)Nc3ccccc3F)cc2-c2ccc3nccnc3c2)n1 [Compound 16b] ?
197.5 to 200 °C
